- study.system: HKU24 HR2 peptide (HKU24)
- assay.protocol: peptide ELISA
Kindly state EC50 for each of the entries shown.
Just the number please, in mg/L, no unit attached.

Task item: # EC50 lookup, item hr2.015 (antibody, V domains shown) VH: QVQLVQSGAEVKKPGASVKVSCKASGYTFSSYYVNWVRQAPGQGLEWLGIINRSGSSTIYAQKFQGRVTMTRDTSTSTVYLELSSLRSEDTAVYYCARDQDHALHWGQGTLVTVSS VL: QSVLTQPPSVSAAPGQKVTISCSGSSSNIGSNYVSWYQQLPGTAPKLLIYDNSERPSGIPDRFSGSRSGTSATLGITGLQTGDEADYYCGTWDTSLSAWVFGGGTKLTVL
Reply: 0.0482

Task item: Next entry: hr2.020 (antibody, V domains shown) VH: EVQLVQSGAEVKKPGESLKISCKGSGYRFASHWIGWVRQMPGKGLQWMGIIYPGDSDTKYSPSFQGQVTISADKSINTVYLHWTSLKASDTAVYYCARRPPHLDGGDSPIRFDHWGQGTLVTVSS VL: QSVLTQPPSASGTPGQRVTISCSGSRSNIGSNDVYWYQQFPGTAPKLLIYRNNQRPSGVPDRFSGSKSGTSASLAISGLRSEDEADYYCATWDDRLTGVFGGGTKLTVV
Reply: 0.0329

Task item: Next entry: hr2.094 (antibody, V domains shown) VH: EVQLVESGGGLVQPGGSLRLSCAASGFTFSTFWMTWVRQAPGKGLEWVANIKSDGSEKYYVDSVKGRFTISRDNAKNSLYLQMNSLRAEDTAVYYCATWFGLHWGQGTLVTVSS VL: DIVMTQSPDSLAVSLGERASINCKSSQTVLYSSNNKNYLAWYQQKPGQPPKLLIHWASTRDSGVPDRFSGSGSGTDFTLTISSLQAEDVAVYYCQQYHRIPWTFGRGTKVEIK
Reply: 0.012

Entry source: patent US20250382354A1
